experiment: Assessment of Plasma Exposure in DBA/2J mice; type: in vivo, mouse; conditions: male, DBA/2J, mouse, plasma, ip, 100 mg/kg, Group 5: 100 mg/kg IP, Vehicle 1; mouse plasma
REPORTED_ENDPOINT: half-life (h)
Answers are plain numbers, in h.

# half-life (compound: COCCNc1nc(-c2nccn2C)nc2sc(-c3cccc(OC)c3Cl)c(-c3ccccc3)c12 ) is 2.96

----------
target: Rac-1 (Homo sapiens (Human)); assay: Ras GTP Binding Domain Inhibition Assay, Rac-1; details: without SOS, read-out: Rac-1: % inh.
Assignment: determine reported inhibition at 20 µM for the given compounds.

COMPOUND	inhibition at 20 µM
COCCN(C)c1nc(-c2nccn2C)nc2sc(-c3ccccc3)c(-c3ccccc3)c12 [Compound 2]	26 to 45%
CO[C@H]1CNC[C@@H](Nc2nc(-c3nccn3C)nc3sc(-c4ccn(C(C)C)n4)cc23)C1 [Compound 28]	46 to 75%
COCCCn1c(-c2nccn2C)nc2sc(-c3ccn(C(C)C)n3)c(C)c2c1=O [Compound 31]	0%
COCCNc1nc(-c2nccn2C)nc2sc(-c3cccc(OC)c3Cl)c(-c3ccccc3)c12 [Compound 9]	46 to 75%
COc1cccc(Nc2nc(-c3nccn3C)nc3sc(-c4ccn(C(C)C)n4)c(C)c23)n1 [Compound 18]	46 to 75%

Dear reader, for each entry below, please note its inhibition at 20 µM.
1. COc1cccc(-c2sc3nc(-c4nccn4C)nc(N[C@H]4C[C@H](OC)C4)c3c2C)c1F [Compound 42]
2. Cc1c(-c2ccn(C(C)C)n2)sc2nc(-c3nccn3C)nc(NCC3COCCN3C)c12 (racemic) [Compound 24]

## Result
1. 0%
2. 76 to 100%

----------
molecular target: KRas G12C mutant (Homo sapiens (Human), UniProt P01116, G12C); assay: Ras GTP Binding Domain Inhibition Assay, KRas G12C mutant; details: + SOS, read-out: KRas G12C mutant + SOS: % inh.
Sequence (P01116 other isoform, or with tags, fused parts or gaps G12C): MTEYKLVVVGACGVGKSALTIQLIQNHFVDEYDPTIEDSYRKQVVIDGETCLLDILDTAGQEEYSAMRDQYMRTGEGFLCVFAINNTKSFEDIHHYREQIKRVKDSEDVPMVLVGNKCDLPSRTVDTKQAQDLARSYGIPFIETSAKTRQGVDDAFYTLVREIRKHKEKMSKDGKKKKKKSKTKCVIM
REPORTED_ENDPOINT: inhibition at 20 µM

COMPOUND	DATA_VALUE
COc1cccc(-c2sc3nc(-c4nccn4C)nc(NC4CCC(OC)C4)c3c2C)c1F (racemic) [Compound 10]	46 to 75%
CO[C@H]1CC[C@@H](Nc2nc(-c3nccn3C)nc3sc(-c4ccn(C)n4)c(-c4ccccc4)c23)C1 (racemic) [Compound 5]	76 to 100%
COCCCn1c(-c2nccn2C)nc2sc(-c3ccn(C(C)C)n3)c(C)c2c1=O [Compound 31]	0%

Dear reader, for each entry below, please note its inhibition at 20 µM.
1. COc1nccc(-c2sc3nc(-c4nccn4C)nc(N[C@H]4C[C@H](OC)C4)c3c2-c2ccccc2)c1F [Compound 45]
2. COc1cccc(-c2sc3nc(-c4nccn4C)nc(N[C@H]4C[C@H](OC)C4)c3c2-c2ccccc2)c1F [Compound 40]
3. COCCCn1c(-c2nccn2C)nc2sc(-c3ccn(C(C)C)n3)c(-c3ccccc3)c2c1=O [Compound 36]
4. COc1cccc(-c2sc3nc(-c4nccn4C)nc(N[C@@H]4CC[C@@H](OC)C4)c3c2-c2ccccc2)c1F (racemic) [Compound 41]

## Result
1: 76 to 100%; 2: 76 to 100%; 3: 1 to 25%; 4: 76 to 100%
